Collected literature values of pIC50 measured for Proto-oncogene tyrosine-protein kinase receptor Ret (Homo sapiens, UniProt P07949).
pIC50: −log10 of the molar value.

# count of solved cases: 6
Cn1cc(-c2cc(-c3ccc(N4C[C@@H]5[C@@H](CNC(=O)C(C)(C)C)[C@@H]5C4)nc3)c3c(C#N)cnn3c2)cn1 : ≥ 8.00
CS(=O)(=O)CCNC(=O)c1ccc(S(=O)(=O)NCc2c[nH]c3ncccc23)cc1 : ≥ 5.00
CC1(NC(=O)c2ncccc2Cl)CCN(c2ccc(-c3cc(C#CC4(O)COC4)cn4ncc(C#N)c34)cn2)CC1 : 9.60
COCc1cccc2[nH]c(-c3n[nH]c4ncc(-c5cncc(CNCCO)c5)cc34)nc12 : < 5.00
CS(=O)(=O)c1cccc(-c2cnc3[nH]cc(C(=O)c4cc(O)ccc4F)c3c2)c1 : ≥ 5.00
Cc1cc(Nc2cc(C)[nH]n2)nc(N2CCC(O)(C(=O)NCc3ccc(-n4cccn4)nc3)CC2)n1 : > 8.00

Okay, next one:
input: Provide pIC50, recorded with Proto-oncogene tyrosine-protein kinase receptor Ret (Homo sapiens, UniProt P07949), of CCOc1cc(-c2ccc(NC(=O)Nc3ccc(OC4(C)CS(=O)(=O)C4)c(C(F)(F)F)c3)c(F)c2)c[nH]c1=O
output: > 7.00

* * *

Collected literature values of IC50 measured for Proto-oncogene tyrosine-protein kinase receptor Ret (Homo sapiens, UniProt P07949).

# count of solved cases: 8
CC(C)N1CCN(Cc2ccc(NC(=O)Nc3ccc(Oc4cc(N)ncn4)cc3)cc2C(F)(F)F)CC1 : 0.55 µM
Cc1cc(Nc2cc(C)[nH]n2)nc(N2CCC(CC#N)(C(=O)N[C@@H](C)c3ccc(-n4cccn4)nc3)CC2)n1 : < 0.01 µM
CCOc1cc(-c2ccc(NC(=O)Nc3ccc(OC4(C)COC4)c(C(F)(F)F)c3)c(OC)n2)c[nH]c1=O : < 0.1 µM
COc1cc(-c2ccc(NC(=O)Nc3ccc(OC4(C)COC4)c(C(F)(F)F)c3)cc2)c[nH]c1=O : < 0.1 µM
COc1cccc(C(=O)c2c[nH]c3ncc(-c4ccsc4)cc23)c1 : ≤ 10 µM
CS(=O)(=O)Nc1cccc(-c2ccnc3[nH]cc(C(=O)c4cccc(Cl)c4Cl)c23)c1 : ≤ 10 µM
NC(=O)c1cccc(-c2cnc3[nH]cc(C(=O)c4cc(O)ccc4F)c3c2)c1 : ≤ 10 µM
COC1(C(=O)N[C@@H](C)c2ccc(-n3cc(F)cn3)nc2)CN(c2cc(C(F)F)cc(Nc3cc(C)[nH]n3)n2)C1 : < 0.01 µM

input: Write down IC50 measured for item FC1(F)Oc2cc3nc(-c4n[nH]c5ncc(-c6cccnc6)cc45)[nH]c3cc2O1
output: > 100 µM

* * *

pIC50: −log10 of the molar value.
Collected literature values of pIC50 measured for Proto-oncogene tyrosine-protein kinase receptor Ret (Homo sapiens).

# count of solved cases: 5
Cc1ccc(F)cc1C(=O)c1c[nH]c2nccc(-c3cccc(C(N)=O)c3)c12 : ≥ 5.00
COc1cc2ncnc(Oc3ccc(NC(=O)N4CCCCC4)cc3)c2cc1OC : 6.60
CCOc1ccc(CNC(=O)c2ncc(-c3nc(C)cc(Nc4cc(C)[nH]n4)n3)cc2C)cc1 : 7.00 to 8.00
COc1ccc(-c2ccnc3[nH]cc(C(=O)c4ccccc4C)c23)cn1 : ≥ 5.00
CO[C@]1(C(=O)N[C@@H](C)c2ccc(-n3cc(F)cn3)nc2)CC[C@H](c2nc(Nc3cc(C)[nH]n3)cc(C)c2C#N)CC1 : 8.90

input: Provide pIC50, recorded with Proto-oncogene tyrosine-protein kinase receptor Ret (Homo sapiens), of Cc1cc(Nc2cc(C)[nH]n2)nc(N2CC(F)(C(=O)NCc3ccc(-n4cc(F)cn4)nc3)C2)n1
output: > 8.00

input: Provide pIC50, recorded with Proto-oncogene tyrosine-protein kinase receptor Ret (Homo sapiens), of Cc1cc(C(=O)c2c[nH]c3nccc(-c4cccnc4)c23)no1
output: ≥ 5.00

input: Provide pIC50, recorded with Proto-oncogene tyrosine-protein kinase receptor Ret (Homo sapiens), of Cc1cc(Nc2cc(C)[nH]n2)nc(C2=CCC(C(=O)N[C@@H](C)c3ccc(-n4cc(F)cn4)nc3)CC2)n1 (stereo partly shown)
output: > 8.00

input: Provide pIC50, recorded with Proto-oncogene tyrosine-protein kinase receptor Ret (Homo sapiens), of Cc1cc(C(=O)c2c[nH]c3nccc(-c4cccc(S(C)(=O)=O)c4)c23)no1
output: ≥ 5.00

input: Provide pIC50, recorded with Proto-oncogene tyrosine-protein kinase receptor Ret (Homo sapiens), of CCOc1cc(-c2ccc(NC(=O)Nc3ccc(OC(C)CO)c(C(F)(F)F)c3)c(F)c2)c[nH]c1=O (stereo not shown)
output: > 7.00

* * *

Collected literature values of pIC50 measured for UniProt P07949.
pIC50: −log10 of the molar value.

Cc1cc(Nc2cc(C)[nH]n2)nc(N2CC(C#N)(C(=O)N[C@@H](C)c3ccc(-n4cccn4)nc3)C2)n1 : > 8.00
COCCOCCOCCOCCOCCOCCOCCOCCOCCNC(=O)c1c(C)[nH]c(/C=C2\C(=O)Nc3ccc(F)cc32)c1C : 6.06
O=S(=O)(NCc1c[nH]c2ncccc12)c1ccsc1 : ≥ 5.00

Okay, next one:
input: Write down pIC50 measured for item NC(=O)c1ccc(-c2ccnc3[nH]cc(C(=O)c4ccc(Cl)cc4)c23)cc1
output: ≥ 5.00

* * *

Collected literature values of pIC50 measured for Proto-oncogene tyrosine-protein kinase receptor Ret (Homo sapiens, UniProt P07949).
pIC50: −log10 of the molar value.

CN1CCN(c2ccc3[nH]c(-c4n[nH]c5ncc(-c6cccnc6)cc45)nc3c2)CC1 : 6.72
Cc1cc(Nc2cc(C)[nH]n2)nc(N2CC(C)(C(=O)NCc3ccc(-n4cccn4)nc3)C2)c1 : > 8.00
COc1ccc(CN2C3CC2CN(c2ccc(-c4cc(N5CC[C@@H](O)C5)cn5ncc(C#N)c45)cn2)C3)cn1 : 8.96

input: Write down pIC50 measured for item CCOc1cc(Oc2ccc(NC(=O)Nc3ccc(OC4(C)COC4)c(C(F)(F)F)c3)cn2)c[nH]c1=O
output: > 7.00

input: Write down pIC50 measured for item CCOc1cc(-c2ccc(N3C[C@@H]4C[C@@](C)(NC(=O)c5c(F)cccc5Cl)C[C@@H]4C3)nc2)c2c(C#N)cnn2c1
output: ≥ 8.00

input: Write down pIC50 measured for item NC(=O)c1ccc(-c2ccnc3[nH]cc(C(=O)c4cccc(Cl)c4Cl)c23)cc1
output: ≥ 5.00

input: Write down pIC50 measured for item COc1ccc(OC2CCN(c3ccc(-c4cc(C#CC(C)(C)O)cn5ncc(C#N)c45)cn3)CC2)cn1
output: 8.91

input: Write down pIC50 measured for item O=C(O)/C=C/c1cccc(-c2cnc3[nH]cc(C(=O)c4cccc(Cl)c4Cl)c3c2)c1
output: ≥ 5.00

* * *

Collected literature values of pIC50 measured for Proto-oncogene tyrosine-protein kinase receptor Ret (Homo sapiens).
pIC50: −log10 of the molar value.

# count of solved cases: 8
Cn1cc(-c2cc(-c3ccc(N4C[C@@H]5[C@@H](CNC(=O)c6c(F)cccc6Cl)[C@@H]5C4)nc3)c3c(C#N)cnn3c2)cn1 : ≥ 8.00
CC(C)(O)COc1cc(-c2ccc(N3C[C@@H]4[C@@H](CNC(=O)c5ncccc5Cl)[C@@H]4C3)nc2)c2c(C#N)cnn2c1 : ≥ 8.00
CCOc1cc(-c2ccc(NC(=O)Nc3ccc(OC(C)(C)C#N)c(C(F)(F)F)c3)c(F)c2)c[nH]c1=O : > 7.00
Cc1cc(Nc2cc(C)[nH]n2)nc([C@H]2C[C@H](C(=O)N[C@H](C)c3cnc(-n4cc(F)cn4)cn3)C2)c1 : > 9.00
Nc1cccc(-c2ccnc3[nH]cc(C(=O)c4ccc(Cl)cc4)c23)c1 : ≥ 5.00
CCOc1ccc(NC(=O)Nc2ccc(-c3c[nH]c(=O)c4c3CCC4)cc2F)cc1C(F)(F)F : > 7.00
CCOc1cc(-c2ccc(CC(=O)Nc3cc(C(C)(C)C(F)(F)F)on3)c(F)c2)c[nH]c1=O : > 7.00
CC(C)(O)COc1cc(-c2ccc(N3C[C@@H]4CN(S(=O)(=O)c5c(F)cccc5Cl)C[C@@H]4C3)nc2)c2c(C#N)cnn2c1 : ≥ 8.00

input: Provide pIC50, recorded with Proto-oncogene tyrosine-protein kinase receptor Ret (Homo sapiens), of CC(C)C(O)C(=O)NC[C@H]1[C@H]2CN(c3ccc(-c4cc(-c5cnn(C)c5)cn5ncc(C#N)c45)cn3)C[C@@H]12 (some centres unmarked)
output: ≥ 8.00

input: Provide pIC50, recorded with Proto-oncogene tyrosine-protein kinase receptor Ret (Homo sapiens), of COc1ccc(CNC(=O)[C@H]2[C@@H]3CN(c4ccc(-c5cc(OCC(C)(C)O)cn6ncc(C#N)c56)cn4)C[C@@H]32)cn1
output: ≥ 8.00

input: Provide pIC50, recorded with Proto-oncogene tyrosine-protein kinase receptor Ret (Homo sapiens), of Cn1ccc(-c2cc(-c3cnc(N4C[C@@H]5C[C@@](C)(NC(=O)c6ncccc6F)C[C@@H]5C4)cn3)c3c(C#N)cnn3c2)n1
output: ≥ 8.00

input: Provide pIC50, recorded with Proto-oncogene tyrosine-protein kinase receptor Ret (Homo sapiens), of Cc1cc(Nc2cc(C)[nH]n2)nc([C@@H]2CC[C@@H](C(=O)N[C@@H](C)c3ccc(-n4cc(F)cn4)nc3)[C@@H](C)C2)n1
output: < 7.00

input: Provide pIC50, recorded with Proto-oncogene tyrosine-protein kinase receptor Ret (Homo sapiens), of CS(=O)(=O)c1cccc(-c2ccnc3[nH]cc(C(=O)c4ccccc4F)c23)c1
output: ≥ 5.00

input: Provide pIC50, recorded with Proto-oncogene tyrosine-protein kinase receptor Ret (Homo sapiens), of CCN1CCN(Cc2cc(F)c(NC(=O)Cc3ccc(-c4cnc5cc(OC)c(OC)cc5c4)nc3)cc2C(F)(F)F)CC1
output: 9.30
